molecular target: Delta(24)-sterol reductase DHCR24 (Rattus norvegicus); assay: Compound was tested for the inhibition of delta24-sterol reductase
OBSERVATION TYPE: Ki (µM)
Numbers only, in µM.

Which Ki value belongs to C[C@H](CCC(N)=[N+](C)C)C1CC[C@@]2(C)C3=C(CC[C@]12C)[C@@]1(C)CC[C@H](O)C(C)(C)C1CC3 (stereo partly specified) ?
0.012

----------
molecular target: Delta(24)-sterol reductase DHCR24 (Rattus norvegicus); test: Compound was tested for the inhibition of delta24-sterol reductase
Kindly supply the reported pKi values for the records listed here.
Numbers only, as −log10 of the molar value.

COMPOUND	OBSERVATION TYPE	ENDPOINT RESULT
CC(C)[S+](C)CC[C@@H](C)C1CCC2C3CC=C4C[C@@H](O)CC[C@]4(C)C3CC[C@@]21C (some centres not stated)	pKi	8.40

Which pKi value belongs to C[C@H](CCC(=N)N)C1CC[C@@]2(C)C3=C(CC[C@]12C)[C@@]1(C)CC[C@H](O)C(C)(C)C1CC3 (some centres not stated) ?
8.15
